B1: Twister Ribozyme (parent)
chain: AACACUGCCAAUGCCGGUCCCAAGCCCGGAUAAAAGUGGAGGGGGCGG

# Variants of: B1
# Test Name: self-cleavage, relative activity (ratio to wild type); higher = more cleavage; co-transcriptional
Reported Metric: self-cleavage
Give a plain numeric answer without units written out.

What measured self-cleavage goes with C15G G47C ?
0.0669

New cases:
Name the reported self-cleavage value associated with the variant A4C C26G
0.103

Consider next the variant A30U G45C in the same way.
0.661

Can you check U31C A34G next?
0.664

Then this variant: C3G C20A
0.0892

Similarly, U18C A23G ?
0.157

Now try U6G A40U .
0.181

// repeat for A32G A40G and report
0.147

Ok, now A33G G45U
0.782

Can you check C26U G44A next?
0.537

What would you report for G17A G48U ?
0.603

And G13U A34G ?
0.211

Same again, this time with A1U A35C
0.0998

// repeat for A35U G47C and report
0.694

What about this variant? A1G C19G
0.202

Again, but for A35C G43A
0.235
